Known melting point of a selection of compounds

Record excerpt, results attached:
compound: CC1(C)Cc2c(Cl)cccc2C1N=CNC#N (stereo unspecified)
measured-value: 173 to 175 °C

compound: COc1ncc(C(=O)Nc2c(F)cncc2F)cc1OC1CCCC1
measured-value: 210 to 211 °C

compound: CCCC(C)(C)C(=O)Oc1ccc(C(=O)CNC(C)(C)C)cc1O
measured-value: 128 to 130 °C

compound: CC1(C)Oc2ccc([N+](=O)[O-])cc2C=C1CBr
measured-value: 107 °C

Given item CC(C)(C)OC(=O)N1CCN(C2CC2)CC1 , the value recorded as its melting point is 65 to 67 °C

Given item O=C1CCC2(N1)C1C=CC(C1)C2c1ccccc1 (stereo unspecified) , the value recorded as its melting point is 152 to 155 °C

* * *

parameter: melting point

molecule: Cc1ccc(S(=O)(=O)OCCCCCCn2c3c(c4ccccc4c2=O)C(=O)c2ccccc2-3)cc1
measured-value: 146 to 149 °C

molecule: Cc1ccc2c(c1)CC(N1CCN(CCN3CCOC3=O)CC1)c1cc(C)ccc1O2 (stereo not given)
measured-value: 145 to 147 °C

molecule: CCO[C@@H](C)c1nnc([C@H](C)OCC)n1N[C@H](CC)C(OC)OC
measured-value: 88 °C

molecule: CN(C)CCc1c[nH]c2ccc(CCS(=O)(=O)Nc3ccccc3)cc12
measured-value: 144 to 146 °C

molecule: O=C(O)CSc1c(Cl)cc2c(-c3ccccc3F)noc2c1Cl
measured-value: 165 °C

Given item O=C(O)C(CCO)N1CCCC1=O (stereo not given) , the value recorded as its melting point is 123 to 124 °C

* * *

Known melting point of a selection of molecules

sample-smiles: O=Cc1ccc2c3ccccc3c3ccccc3c2c1
melting point: 160 to 162 °C

sample-smiles: O=C(Nc1ccc(NCCCO)nc1)c1cc2cc(C(F)(F)F)cnc2n1Cc1cccc(F)c1
melting point: 207 to 210 °C

sample-smiles: Nc1[nH]nc(-c2ccncc2)c1-c1ccc(F)cc1
melting point: 116 to 118 °C

sample-smiles: COc1ccc(/C=C(\C#N)c2ccc3ccccc3c2)cc1OC1CCCC1
melting point: 147 to 148 °C

sample-smiles: CON1C(=O)CC2(CCN(C(=O)c3cccnc3)CC2)C1=O
melting point: 199 to 201 °C

sample-smiles: N#CC(=C1CCN(Cc2ccccc2)CC1)c1ccc(F)cc1
melting point: 81 to 83 °C

sample-smiles: Cc1c(C(=O)Nc2ccc(OCC(C)(C)C)c(C#N)c2)cnn1C
melting point: 187 to 188 °C

sample-smiles: O=C1Nc2ccc(Br)cc2C12CCCCC2
melting point: 196 to 199 °C

Given item CCOc1ccc(-c2[nH]nc3c2C(=O)c2c(NC(C)=O)cccc2-3)cc1 , the value recorded as its melting point is 288 °C

Given item CCCc1nc2c(N)nc3cc(OCCN4CCCS4(=O)=O)ccc3c2s1 , the value recorded as its melting point is 127 to 130 °C

Given item c1cc(CN2CCCCC2)cc(OCCCNc2nnc3ccccn23)c1 , the value recorded as its melting point is 150 to 151 °C

* * *

Known melting point of a selection of compounds

Record excerpt, results attached:
compound: CC(C)c1nc2ccccc2n1CCCCCSc1nc(-c2ccc(N(C)C)cc2)c(-c2ccc(N(C)C)cc2)[nH]1
melting point: 110 to 112 °C
--
compound: CC(C)(C)OC(=O)N1CCC(CNC(=O)[C@@H]2CCCN2C(=O)OCc2ccccc2)CC1
melting point: 50 °C
--
compound: CN(Cc1ccc(C(=O)Cn2cnc3cc(-c4ccc(Cl)cc4)sc3c2=O)cc1)C(=O)C(F)(F)F
melting point: 235 to 238 °C
--
compound: CN1NC(=O)C2C(C1=O)C2(C)C (stereo not given)
melting point: 151 to 154 °C
--
compound: CN(C)C=Nc1c(Cl)cc(N=Cc2ccc(N(C)C)cc2Cl)cc1Cl
melting point: 139 to 140 °C
--
compound: CCCCCc1cc(O)c(C2=C(CO)CCC(C)C2)c(O)c1 (stereo not given)
melting point: 109 to 111 °C
--
compound: CSc1ccccc1C(=O)Nc1ccccc1
melting point: 148 to 149 °C
--
compound: Nc1cc(Sc2ccc3c(C(=O)O)cccc3c2)ncn1
melting point: 264 to 266 °C
--
compound: Cc1c(NC(=O)c2ccc(-c3ccc(F)cc3)cc2)ccc2cc(CN(C)C)cnc12
melting point: 161 to 163 °C

Given item Nc1ccc(-c2ccncc2)cc1 , the value recorded as its melting point is 232 to 234 °C
